molecular target: PkPSD proenzyme; MBP-His6-Δ34PkPSD(S308A) (Plasmodium knowlesi, UniProt B3L2V1, S308A); assay: biochemical
Sequence (B3L2V1 35-354 S308A): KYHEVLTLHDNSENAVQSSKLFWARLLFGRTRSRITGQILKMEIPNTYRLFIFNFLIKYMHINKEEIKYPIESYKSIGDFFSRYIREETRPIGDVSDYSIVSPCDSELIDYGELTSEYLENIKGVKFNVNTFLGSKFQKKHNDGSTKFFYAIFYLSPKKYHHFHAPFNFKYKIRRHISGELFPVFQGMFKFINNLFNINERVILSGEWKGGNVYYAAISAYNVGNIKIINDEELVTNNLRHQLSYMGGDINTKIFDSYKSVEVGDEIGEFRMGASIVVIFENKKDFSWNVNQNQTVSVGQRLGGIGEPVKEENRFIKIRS
Kd values by entry
Note: unit nM is implicit; provide only the numeric part.

CCCCCCCC/C=C\CCCCCCCC(=O)OC[C@H](COP(=O)(O)OCC(O)CO)OC(=O)CCCCCCC/C=C\CCCCCCCC (some centres unmarked) ... 66.4

Now turn to the next compound.
Q: // returns reported Kd for input `CCCCCCCC/C=C\CCCCCCCC(=O)OC[C@H](COP(=O)(O)OC[C@H](N)C(=O)O)OC(=O)CCCCCCC/C=C\CCCCCCCC`
Result: 80.4
